TARGET_OR_SYSTEM: human FXR alpha (NR1H4) (Homo sapiens)
Sequence (Q96RI1 1-472 isoform Q96RI1-2): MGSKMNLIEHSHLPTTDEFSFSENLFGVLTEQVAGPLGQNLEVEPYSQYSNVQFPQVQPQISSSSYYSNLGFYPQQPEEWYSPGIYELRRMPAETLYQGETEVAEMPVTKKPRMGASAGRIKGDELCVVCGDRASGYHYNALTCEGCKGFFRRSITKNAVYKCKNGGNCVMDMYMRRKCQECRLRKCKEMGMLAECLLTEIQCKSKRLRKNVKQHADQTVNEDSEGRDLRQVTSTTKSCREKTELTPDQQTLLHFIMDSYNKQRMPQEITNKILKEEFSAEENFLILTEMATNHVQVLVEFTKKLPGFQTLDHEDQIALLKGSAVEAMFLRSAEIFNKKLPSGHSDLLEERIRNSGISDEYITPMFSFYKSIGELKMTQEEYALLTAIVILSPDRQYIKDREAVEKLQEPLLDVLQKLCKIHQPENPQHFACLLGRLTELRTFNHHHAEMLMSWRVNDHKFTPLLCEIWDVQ
EXPERIMENTAL_PROTOCOL: In vitro LANCE TR-FRET screening for FXR binding to coactivator TIF2
Type: biochemical
Parameters: EC50 AVG; other: relative to CDCA control agonist; fused on or other part: GST at the N-terminus (pDest15)
DETAILS: read-out: EC50 at FXR (half-maximal effective concentration)
READOUT_KIND: pEC50
Units for pEC50: none; it is -log10 of a concentration expressed in mol/L.

Reported pEC50 ( COc1ccccc1-c1cc(-c2ccccc2O)nc(NCC2CCC(C(=O)O)CC2)n1 (stereo not shown) [LN0000006691] ) = 6.80

###

TARGET_OR_SYSTEM: UniProt:Q96RI1
EXPERIMENTAL_PROTOCOL: In vitro LANCE TR-FRET screening for FXR binding to coactivator TIF2
Type: biochemical
Design: EC50 AVG; other: relative to CDCA control agonist; fused on or other part: GST at the N-terminus (pDest15)
DETAILS: read-out: EFFIC AVG (average efficacy, % activity relative to CDCA control agonist)
READOUT_KIND: Emax (%)
Respond with the bare value in %.

Example compounds with recorded Emax:
COMPOUND | Emax, %
O=C(O)C1CCC(CNc2nc(-c3cccs3)cc(-c3ccccc3O)n2)CC1 (stereo not shown) [LN0000006692] | 111
COc1ccccc1-c1cc(-c2ccccc2O)nc(NCC2CCC(C(=O)O)CC2)n1 (stereo not shown) [LN0000006691] | 125
COc1ccccc1-c1cc(-c2cc(C)ccc2O)nc(NCC2CCC(C(=O)O)CC2)n1 (stereo not shown) [LN0000002683] | 134

In the following, a different compound is considered.
UniProt:Q96RI1 Emax of O=C(O)C1CCC(CNc2nc(-c3ccccc3O)cc(-c3ccccc3F)n2)CC1 (stereo not shown) [LN0000007265] is 91

Recorded values, source patent US7098336B2.
